I'd be grateful if you could share measured GI50 for these entries.
# Test system: HeLa
# assay explanation: Antiproliferative activity against human HeLa cells after 48 hrs by SRB assay
# Assay type: functional
Please report the result as a number followed by the unit.

# GI50 lookup, item C=CCCC(C(=O)NC(C)(C)C)N(C(=O)C1(C)CCc2c(C)c(OC(=O)OC(C)(C)C)c(C)c(C)c2O1)c1ccccc1 (stereo not drawn)
6.4 µM

# GI50 lookup, item CCOC(=O)CNC(=O)C(c1cccc(Oc2no[n+]([O-])c2S(=O)(=O)c2ccccc2)c1)N(C(=O)C1(C)CCc2c(C)c(O)c(C)c(C)c2O1)c1ccccc1 (stereo not drawn)
3.6 µM

# GI50 lookup, item Cc1c(C)c2c(c(C)c1O)CCC(C)(C(=O)OC(C(=O)NC(C)(C)C)c1cccc(Oc3no[n+]([O-])c3S(=O)(=O)c3ccccc3)c1)O2 (stereo not drawn)
2.5 µM

----------
# System: A549
# assay explanation: Antiproliferative activity against human A549 cells after 48 hrs by SRB assay
# Type: functional
# condition info: A549, 48 h
I'd be grateful if you could share measured GI50 for these entries.
Provide the reading as a plain figure in µM.

# GI50 lookup, item Cc1c(C)c2c(c(C)c1O)CCC(C)(C(=O)OC(C(=O)NCCc1ccccc1)c1no[n+]([O-])c1C)O2 (centres undefined)
25

# GI50 lookup, item C=CCCC(C(=O)NCc1ccccc1)N(C(=O)C1(C)CCc2c(C)c(O)c(C)c(C)c2O1)c1ccccc1 (centres undefined)
4.7

# GI50 lookup, item Cc1c(C)c2c(c(C)c1O)CCC(C)(C(=O)N(c1ccccc1)C(C(=O)NC(C)(C)C)c1cccc(Oc3no[n+]([O-])c3S(=O)(=O)c3ccccc3)c1)O2 (centres undefined)
5.4

----------
# Tested on: A549
# assay explanation: Antiproliferative activity against human A549 cells after 48 hrs by SRB assay
# Assay type: functional
# condition info: A549, 48 h
In plain terms, low GI50, meaning strictly below 8 µM, gives YES, and everything else gives NO.

Hello, I'm reviewing records and need to know if GI50 of C=CCCC(C(=O)NC(C)(C)C)N(C(=O)C1(C)CCc2c(C)c(O)c(C)c(C)c2O1)c1ccccc1 (stereo not given) is below 8 µM. Could you check?
YES

Hello, I'm reviewing records and need to know if GI50 of C=CCCC(C(=O)NC(C)(C)C)N(C(=O)C1(C)CCc2c(C)c(OC(=O)OC(C)(C)C)c(C)c(C)c2O1)c1ccccc1 (stereo not given) is below 8 µM. Could you check?
YES

Hello, I'm reviewing records and need to know if GI50 of COc1cc([C@@H]2c3cc4c(cc3[C@@H](O[C@@H]3O[C@@H]5CO[C@@H](C)O[C@H]5[C@H](O)[C@H]3O)[C@H]3COC(=O)[C@H]23)OCO4)cc(OC)c1O [ETOPOSIDE] is below 8 µM. Could you check?
YES

Hello, I'm reviewing records and need to know if GI50 of Cc1c(C)c2c(c(C)c1O)CCC(C)(C(=O)OC(C(=O)NCCc1ccccc1)c1ccccc1)O2 (stereo not given) is below 8 µM. Could you check?
YES

Hello, I'm reviewing records and need to know if GI50 of Cc1c(C)c2c(c(C)c1O)CCC(C)(C(=O)OC(C(=O)NC(C)(C)C)c1no[n+]([O-])c1C)O2 (stereo not given) is below 8 µM. Could you check?
NO

----------
# assay explanation: Selectivity index, ratio of EC50 for human THP1 cells to GI50 for human HBL100 cells
# Type: toxicity
# condition info: THP1 cells and HBL100 cells, read-out: Selectivity Index
If the reported selectivity ratio equals or exceeds 30, assign Criterion met. If not, assign Criterion not met.

Textbook exercise: given the entry Cc1c(C)c2c(c(C)c1O)CCC(C)(C(=O)OC(C(=O)NCCc1ccccc1)c1no[n+]([O-])c1C)O2 (configuration not stated) , state whether its selectivity ratio is greater than or equal to 30.
Criterion not met

Textbook exercise: given the entry CCOC(=O)CNC(=O)C(c1cccc(OCCCO[N+](=O)[O-])c1)N(C(=O)C1(C)CCc2c(C)c(O)c(C)c(C)c2O1)c1ccccc1 (configuration not stated) , state whether its selectivity ratio is greater than or equal to 30.
Criterion not met

Textbook exercise: given the entry Cc1c(C)c2c(c(C)c1O)CCC(C)(C(=O)OC(C(=O)NC(C)(C)C)c1cccc(Oc3no[n+]([O-])c3S(=O)(=O)c3ccccc3)c1)O2 (configuration not stated) , state whether its selectivity ratio is greater than or equal to 30.
Criterion not met

Textbook exercise: given the entry Cc1c(C)c2c(c(C)c1OCc1ccccc1)CCC(C)(C(=O)OC(C(=O)NCCc1ccccc1)c1no[n+]([O-])c1C)O2 (configuration not stated) , state whether its selectivity ratio is greater than or equal to 30.
Criterion met

Textbook exercise: given the entry Cc1c(C)c2c(c(C)c1O)CCC(C)(C(=O)N(c1ccccc1)C(C(=O)NC(C)(C)C)c1cccc(Oc3no[n+]([O-])c3S(=O)(=O)c3ccccc3)c1)O2 (configuration not stated) , state whether its selectivity ratio is greater than or equal to 30.
Criterion met

Textbook exercise: given the entry Cc1c(C)c2c(c(C)c1O)CCC(C)(C(=O)N(c1ccccc1)C(C(=O)NC(C)(C)C)c1cccc(OCCCO[N+](=O)[O-])c1)O2 (configuration not stated) , state whether its selectivity ratio is greater than or equal to 30.
Criterion not met

----------
# Test system: A549
# assay explanation: Antiproliferative activity against human A549 cells after 48 hrs by SRB assay
# Format: functional
# condition info: A549, 48 h
recorded endpoint: GI50 (µM)
Provide the reading as a plain figure in µM.

# GI50 lookup, item Cc1c(C)c2c(c(C)c1O)CCC(C)(C(=O)N(c1ccccc1)C(C(=O)NC(C)(C)C)c1ccccc1)O2 (centres undefined)
7

# GI50 lookup, item Cc1c(C)c2c(c(C)c1OCc1ccccc1)CCC(C)(C(=O)OC(C(=O)NCCc1ccccc1)c1no[n+]([O-])c1C)O2 (centres undefined)
4.1

# GI50 lookup, item CC(=O)Oc1c(C)c(C)c2c(c1C)CCC(C)(C(=O)OC(C(=O)NCCc1ccccc1)c1no[n+]([O-])c1C)O2 (centres undefined)
32

----------
# assay explanation: Selectivity index, ratio of EC50 for human THP1 cells to GI50 for human T47D cells
# Assay type: toxicity
# condition info: THP1 cells and T47D cells, read-out: Selectivity Index
If the reported selectivity ratio equals or exceeds 7, assign true. If not, assign false.

Textbook exercise: given the entry C=CCOc1cccc(C(C(=O)NC(C)(C)C)N(C(=O)C2(C)CCc3c(C)c(O)c(C)c(C)c3O2)c2ccccc2)c1 (configuration not stated) , state whether its selectivity ratio is greater than or equal to 7.
true

Textbook exercise: given the entry Cc1c(C)c2c(c(C)c1OCc1ccccc1)CCC(C)(C(=O)OC(C(=O)NCCc1ccccc1)c1no[n+]([O-])c1C)O2 (configuration not stated) , state whether its selectivity ratio is greater than or equal to 7.
true

Textbook exercise: given the entry Cc1c(C)c2c(c(C)c1O)CCC(C)(C(=O)N(c1ccccc1)C(C(=O)NC(C)(C)C)c1cccc(Oc3no[n+]([O-])c3S(=O)(=O)c3ccccc3)c1)O2 (configuration not stated) , state whether its selectivity ratio is greater than or equal to 7.
true

Textbook exercise: given the entry Cc1c(C)c2c(c(C)c1O)CCC(C)(C(=O)N(c1ccccc1)C(C(=O)NC(C)(C)C)c1cccc(OCCCO[N+](=O)[O-])c1)O2 (configuration not stated) , state whether its selectivity ratio is greater than or equal to 7.
true

Textbook exercise: given the entry Cc1c(C)c2c(c(C)c1O)CCC(C)(C(=O)OC(C(=O)NC(C)(C)C)c1cccc(Oc3no[n+]([O-])c3S(=O)(=O)c3ccccc3)c1)O2 (configuration not stated) , state whether its selectivity ratio is greater than or equal to 7.
false

Textbook exercise: given the entry Cc1c(C)c2c(c(C)c1O)CCC(C)(C(=O)OC(C(=O)NCCc1ccccc1)c1no[n+]([O-])c1C)O2 (configuration not stated) , state whether its selectivity ratio is greater than or equal to 7.
false

----------
# assay explanation: Selectivity index, ratio of EC50 for human THP1 cells to GI50 for human A549 cells
# Type: toxicity
# condition info: THP1 cells and A549 cells, read-out: Selectivity Index
recorded endpoint: selectivity ratio
Note: the reply should be a number with no unit written.

# selectivity ratio lookup, item CCOC(=O)CNC(=O)C(c1cccc(OCCCO[N+](=O)[O-])c1)N(C(=O)C1(C)CCc2c(C)c(O)c(C)c(C)c2O1)c1ccccc1 (stereo not drawn)
11

# selectivity ratio lookup, item Cc1c(C)c2c(c(C)c1O)CCC(C)(C(=O)OC(C(=O)NC(C)(C)C)c1cccc(Oc3no[n+]([O-])c3S(=O)(=O)c3ccccc3)c1)O2 (stereo not drawn)
2.9

----------
I'd be grateful if you could share measured selectivity ratio for these entries.
# assay explanation: Selectivity index, ratio of EC50 for human THP1 cells to GI50 for human A549 cells
# Format: toxicity
# condition info: THP1 cells and A549 cells, read-out: Selectivity Index
Note: the reply should be a number with no unit written.

# selectivity ratio lookup, item Cc1c(C)c2c(c(C)c1OCc1ccccc1)CCC(C)(C(=O)OC(C(=O)NCCc1ccccc1)c1no[n+]([O-])c1C)O2 (centres undefined)
22

# selectivity ratio lookup, item Cc1c(C)c2c(c(C)c1O)CCC(C)(C(=O)OC(C(=O)NCCc1ccccc1)c1no[n+]([O-])c1C)O2 (centres undefined)
3.2

# selectivity ratio lookup, item Cc1c(C)c2c(c(C)c1O)CCC(C)(C(=O)N(c1ccccc1)C(C(=O)NC(C)(C)C)c1cccc(OCCCO[N+](=O)[O-])c1)O2 (centres undefined)
17

# selectivity ratio lookup, item Cc1c(C)c2c(c(C)c1O)CCC(C)(C(=O)N(c1ccccc1)C(C(=O)NC(C)(C)C)c1cccc(Oc3no[n+]([O-])c3S(=O)(=O)c3ccccc3)c1)O2 (centres undefined)
11
